- Experimental details: Acute toxicity: LD50 on mice after 24 hours
- Test parameters: mouse, in vivo, po, orally
Observed property: LD50 at 24 h (mg/kg)

CN1C[C@H](C(=O)NC2=NCCS2)C[C@@H]2c3cccc4c3c(cn4C)C[C@H]21 ... 315
C=CCOCC(O)CNC(=O)[C@@H]1C=C2c3cccc4[nH]cc(c34)C[C@H]2N(C)C1 (some centres unmarked) ... 205

====

- Tested on: serotonin oedema
- Experimental details: Antiserotonin effect in vivo: rat-sole oedema (serotonin oedema blocking)
- Test parameters: po; rat-sole oedema, peroral; serotonin creatinine sulphate 5 μg per sole in 0.1 ml
Could you please mark t for values of ED50 below 0.6 mg/kg and f for values at or above it?

CC[C@@H](CO)NC(=O)[C@@H]1C=C2c3cccc4c3c(cn4C)C[C@H]2N(C)C1 (racemic) [Deseryl, reference compound] ... f
CN1C[C@H](C(=O)NCCCN2CCCC2=O)C[C@@H]2c3cccc4c3c(cn4C)C[C@H]21 [Example 3] ... f
CN1C[C@H](C(=O)NC2=NCCS2)C[C@@H]2c3cccc4[nH]cc(c34)C[C@H]21 [Example 5] ... f
Cc1cc(O)ccc1NC(=O)[C@@H]1C[C@@H]2c3cccc4c3c(cn4C)C[C@H]2N(C)C1 [Example 14] ... f
CN1C[C@H](C(=O)NC2=NCCS2)C[C@@H]2c3cccc4c3c(cn4C)C[C@H]21 [Example 4] ... t
CN1C[C@H](C(=O)Nc2nccs2)C[C@@H]2c3cccc4c3c(cn4C)C[C@H]21 [Example 9] ... f
